Value source: paper PMC10539519

- Substrate: N[C@@H](CC(=O)O)C(=O)O
- assayText: purified protein
- measurementConditions: co-substrate α-ketoglutarate (fixed, 0.1563–1.25 mM range), 16 µM PLP, 5 mM NAD+, 100 mM potassium phosphate pH 8, 37 °C
readout: kcat (s⁻¹)
Numbers only, in s⁻¹.

Q) Value lookup for kcat; key = E. coli aspartate aminotransferase (AAT) (Escherichia coli K-12) (protein, full-length, N-terminal His-tag, expressed in E. coli BL21-Gold (DE3), Ni-NTA purified; 90 kDa homodimer, PLP-dependent) MFENITAAPADPILGLADLFRADERPGKINLGIGVYKDETGKTPVLTSVKKAEQYLLENETTKNYLGIDGIPEFGRCTQELLFGKGSALINDKRARTAQTPGGTGALRVAADFLAKNTSVKRVWVSNPSWPNHKSVFNSAGLEVREYAYYDAENHTLDFDALINSLNEAQAGDVVLFHGCCHNPTGIDPTLEQWQTLAQLSVEKGWLPLFDFAYQGFARGLEEDAEGLRAFAAMHKELIVASSYSKNFGLYNERVGACTLVAADSETVDRAFSQMKAAIRANYSNPPAHGASVVATILSNDALRAIWEQELTDMRQRIQRMRQLFVNTLQEKGANRDFSFIIKQNGMFSFSGLTKEQVLRLREEFGVYAVASGRVNVAGMTPDNMAPLCEAIVAVL
A) 7.8
